Numbers sourced from PubChem BioAssay (NCI).

Quick list: TGI per entry.
Test system: MOLT-4 leukemia
experiment_description: NCI tumour cell line growth inhibition, 48 h
endpoint: TGI

>>> print(df.to_string())
                                   molecule     result
0  CCCCCCc1cc2cc(-c3csc(-c4ccc(OC)cc4)n3)c(=O)oc2cc1O   > 100 µM
1  Cc1cc(O)c2c(c1)C(O)(c1ccc3c(c1O)C(=O)c1c(O)cc(C)cc1C3(O)C1OC(CO)C(O)C(O)C1O)c1cccc(O)c1C2=O (stereo not given)    32.6 µM
2  O=C(Nc1ccc(OC(F)(F)F)cc1)c1sccc1NCc1ccnc2ccccc12  > 31.6 µM
3  COc1ccc(OC)c(NC(=O)C(=O)C(C(=O)c2ccccc2F)C2OC(=O)c3ccccc32)c1 (stereo not given)   > 100 µM
4  CCOC(=O)Cn1nnc2cc(Nc3c(C)[n+]([O-])c4cc(F)c(OCC)cc4[n+]3[O-])ccc21   > 100 µM
5                           CC(=O)N(CCN)CCN    > 10 µM
6  CCc1nc(N)nc(N)c1-c1ccc([N+](=O)[O-])c(NCc2ccccc2)c1    26.6 µM
7         Clc1ccccc1NN(Cc1ccccn1)c1ccccc1Cl    41.9 µM
8  N#C/C(=C\c1cccc(Br)c1)c1nc2ccccc2c(=O)[nH]1   > 100 µM
9       N#Cc1nc(CCCN2C(=O)c3ccccc3C2=O)oc1N   > 100 µM
